Measurement target: HLA-A*02:01 (Homo sapiens, UniProt P04439, D140Y/D185E/D98H/E176V/E277Q/G131W/G231S/I119V/I121R/I166T/I218V/L300P/L318F/N151K/N90K/P208A/P217A/Q86G/Q94H/R138H/R169H/T345S)
Assay explanation: MHC binding assay (UV-ligand exchange, beta2m ELISA)
Run parameters: binding to HLA-A*02:01 ranged by peptide exchange yield (UV-ligand exchange, β2m ELISA)
Endpoint name: Peptide exchange

// below: answered substances
{"Substance": "432 (TLIEESAKV; listed as Homo sapiens) [compound 432]", "Peptide exchange": "“++” (≥20% = ++)"}
{"Substance": "283 (ALYIGDGYVIHLA; listed as Homo sapiens) [compound 283]", "Peptide exchange": "“+++” (≥50 = +++)"}
{"Substance": "369 (GLFPEHLIDV; listed as Homo sapiens) [compound 369]", "Peptide exchange": "“+++” (≥50 = +++)"}
{"Substance": "494 (ALQPEPIKV; listed as Homo sapiens) [compound 494]", "Peptide exchange": "“++” (≥20% = ++)"}

For the next question, use this substance.
Output Peptide exchange of 247 (VLLPNDLLEKV; listed as Homo sapiens) [compound 247]
“+++” (≥50 = +++)

----------
Measurement target: HLA-A*02:01 (Homo sapiens, UniProt P04439, D140Y/D185E/D98H/E176V/E277Q/G131W/G231S/I119V/I121R/I166T/I218V/L300P/L318F/N151K/N90K/P208A/P217A/Q86G/Q94H/R138H/R169H/T345S)
Assay explanation: MHC binding assay (UV-ligand exchange, beta2m ELISA)
Run parameters: binding to HLA-A*02:01 ranged by peptide exchange yield (UV-ligand exchange, β2m ELISA)
Endpoint name: Peptide exchange

{"Substance": "402 (VLFSGALLGL; listed as Homo sapiens) [compound 402]", "Peptide exchange": "“++” (≥20% = ++)"}
{"Substance": "351 (SLIPNLRNV; listed as Homo sapiens) [compound 351]", "Peptide exchange": "“+++” (≥50 = +++)"}
{"Substance": "41 (SLMPHIPGL; listed as Homo sapiens) [compound 41]", "Peptide exchange": "“+++” (≥50 = +++)"}
{"Substance": "607 (RLYSGISGLEL; listed as Homo sapiens) [compound 607]", "Peptide exchange": "“+++” (≥50 = +++)"}
{"Substance": "372 (TMLLNIPLV; listed as Homo sapiens) [compound 372]", "Peptide exchange": "“++” (≥20% = ++)"}
{"Substance": "516 (AVGPASILKEV; listed as Homo sapiens) [compound 516]", "Peptide exchange": "“++” (≥20% = ++)"}
{"Substance": "519 (GLLHLTLLL; listed as Homo sapiens) [compound 519]", "Peptide exchange": "“+++” (≥50 = +++)"}
{"Substance": "77 (ILVEADGAWVV; listed as Homo sapiens) [compound 77]", "Peptide exchange": "“++++” (≥75% = ++++)"}

Output Peptide exchange of 201 (RLVDYLEGI; listed as Homo sapiens) [compound 201]
“+++” (≥50 = +++)

Output Peptide exchange of 108 (ALFPGVALLLA; listed as Homo sapiens) [compound 108]
“++++” (≥75% = ++++)

Output Peptide exchange of 459 (ALITEVVRL; listed as Homo sapiens) [compound 459]
“++” (≥20% = ++)

Output Peptide exchange of 500 (SLMEDQVLQL; listed as Homo sapiens) [compound 500]
“+++” (≥50 = +++)

Output Peptide exchange of 94 (YLIDIKTIAI; listed as Homo sapiens) [compound 94]
“++” (≥20% = ++)

Output Peptide exchange of 397 (YLFGERLLEC; listed as Homo sapiens) [compound 397]
“+++” (≥50 = +++)

Output Peptide exchange of 357 (SMHDLVLQV; listed as Homo sapiens) [compound 357]
“+++” (≥50 = +++)

Output Peptide exchange of 554 (LLMPSSEDLLL; listed as Homo sapiens) [compound 554]
“+++” (≥50 = +++)

Output Peptide exchange of 635 (SLDSTLHAV; listed as Homo sapiens) [compound 635]
“+++” (≥50 = +++)

Output Peptide exchange of 396 (ALLPDLPAL; listed as Homo sapiens) [compound 396]
“+++” (≥50 = +++)

Output Peptide exchange of 185 (FLIDDKGYTL; listed as Homo sapiens) [compound 185]
“++” (≥20% = ++)

Output Peptide exchange of 186 (TLFFQQNAL; listed as Homo sapiens) [compound 186]
“++” (≥20% = ++)
